# experimental-system: General amino-acid permease GAP1 (Saccharomyces cerevisiae);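 note: amino acid uptake through Gap1 in nitrogen-starved wild-type yeast cells, measured after 60 s and expressed relative to L-citrulline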
# conditions: sigma1278b, at 5 mM
# Description: Inhibition of nitrogen-starved wild type sigma1278b yeast Gap1-mediated amino acid uptake at 5 mM after 60 secs relative to L-citrulline
Non-standard residues stand in square brackets, D forms with d. Residues, ends and D or L forms follow the SMILES beside them. NMeD = CN[C@@H](CC(=O)O)C(=O)O

| molecule | experimental-system | inhibition |
| --- | --- | --- |
| NCC(N)=O | General amino-acid permease GAP1 (Saccharomyces cerevisiae) | < 15% |
| NCC(=O)NCC(=O)N[C@@H](Cc1ccccc1)C(=O)O (H-Gly-Gly-Phe-OH) | General amino-acid permease GAP1 (Saccharomyces cerevisiae) | < 15% |
| C[C@@H](NC(=O)CN)C(=O)O (H-Gly-[dA]-OH) | General amino-acid permease GAP1 (Saccharomyces cerevisiae) | < 15% |
| CN[C@@H](CC(=O)O)C(=O)N[C@@H](Cc1ccccc1)C(N)=O (H-[NMeD]-Phe-NH2) | General amino-acid permease GAP1 (Saccharomyces cerevisiae) | < 15% |
| NC(=O)CC[C@H](NC(=O)[C@@H](N)CO)C(=O)O (H-Ser-Gln-OH) | General amino-acid permease GAP1 (Saccharomyces cerevisiae) | < 15% |
| CC[C@H](C)[C@H](NC(=O)CN)C(=O)O (H-Gly-Ile-OH) | General amino-acid permease GAP1 (Saccharomyces cerevisiae) | < 15% |
| CSCC[C@H](NC(=O)[C@@H](N)Cc1ccccc1)C(=O)O (H-Phe-Met-OH) | General amino-acid permease GAP1 (Saccharomyces cerevisiae) | < 15% |
| CC(C)CC(NC(=O)C(C)N)C(=O)O (racemic) | General amino-acid permease GAP1 (Saccharomyces cerevisiae) | 15% |
| N[C@@H](CC(=O)O)C(=O)N[C@@H](CO)C(=O)O (H-Asp-Ser-OH) | General amino-acid permease GAP1 (Saccharomyces cerevisiae) | < 15% |
| COC(=O)[C@@H](N)CCSC | General amino-acid permease GAP1 (Saccharomyces cerevisiae) | < 15% |
| CC(C)C[C@@H](NC(=O)CN)C(=O)O | General amino-acid permease GAP1 (Saccharomyces cerevisiae) | < 15% |
| CSCC[C@@H](N)C(=O)NCC(=O)O (H-[dM]-Gly-OH) | General amino-acid permease GAP1 (Saccharomyces cerevisiae) | < 15% |
| CCOC(=O)[C@@H](N)Cc1ccccc1 | General amino-acid permease GAP1 (Saccharomyces cerevisiae) | < 15% |
| NCC(=O)NCC(=O)N[C@@H](Cc1ccc(O)cc1)C(=O)O (H-Gly-Gly-Tyr-OH) | General amino-acid permease GAP1 (Saccharomyces cerevisiae) | < 15% |
| COC(=O)[C@H](C)N | General amino-acid permease GAP1 (Saccharomyces cerevisiae) | < 15% |
| N[C@H](CO)Cc1c[nH]c2ccccc12 | General amino-acid permease GAP1 (Saccharomyces cerevisiae) | < 15% |
| N[C@@H](Cc1c[nH]c2ccccc12)C(=O)N[C@@H](CCC(=O)O)C(=O)O (H-Trp-Glu-OH) | General amino-acid permease GAP1 (Saccharomyces cerevisiae) | < 15% |
| NCCCC[C@H](N)C(=O)N[C@@H](Cc1c[nH]c2ccccc12)C(=O)O (H-Lys-Trp-OH) | General amino-acid permease GAP1 (Saccharomyces cerevisiae) | < 15% |
| C[C@H](N)C(=O)N[C@@H](Cc1c[nH]c2ccccc12)C(=O)O (H-Ala-Trp-OH) | General amino-acid permease GAP1 (Saccharomyces cerevisiae) | > 30% |
| N[C@@H](Cc1ccc(O)cc1)C(=O)N[C@@H](Cc1ccc(O)cc1)C(=O)N[C@@H](Cc1ccc(O)cc1)C(=O)O (H-Tyr-Tyr-Tyr-OH) | General amino-acid permease GAP1 (Saccharomyces cerevisiae) | < 15% |
| CC(C)C[C@@H](N)C(=O)NCC(=O)NCC(=O)O (H-[dL]-Gly-Gly-OH) | General amino-acid permease GAP1 (Saccharomyces cerevisiae) | < 15% |
| NCCC(N)=O | General amino-acid permease GAP1 (Saccharomyces cerevisiae) | < 15% |
